Test system: parental replicon cells (I389/NS3-3)
Assay: Sensitivity of parental (wild-type) replicon cells, HCV replicon RNA by quantitative RT-PCR
Assay type: cell-based
Details: Hepatitis C virus; Wild-type replicon cell line; HCV replicon RNA by RT-PCR, 72 hours of treatment
readout.kind: pEC50
Please report pEC50 as the negative decimal logarithm of the molar concentration, giving only the number.

> print(dat)
                                   compound                     target.under.test  reported.result
1  C[C@@]1(O)[C@H](O)[C@@H](CO)O[C@H]1n1cnc2c(N)ncnc21 [2′-C-methyl-adenosine]  parental replicon cells (I389/NS3-3)             6.44

Could you now look at the following compound, please?
Which pEC50 is listed for N#Cc1c(Nc2cc(Cl)cc(Cl)c2)s[nH]c1=O [Compound 1] ?
7.15

---

System: Huh-7 cells
Conditions: read-out: Range of CC50 in cytotoxicity assay; cytotoxicity, class symbols
As shown below, each of these compounds has a reported CC50 value.

In the examples that follow, each entry is paired with its recorded CC50.
> print(dat)
                                 cpd.smiles  readout.kind  reported.result
1      N#Cc1c(Nc2cc(F)c(Br)c(F)c2)s[nH]c1=O          CC50          > 50 µM
2   CN(C)c1ccc(Nc2s[nH]c(=O)c2C#N)c2ccccc12          CC50          > 50 µM
3  N#Cc1c(Nc2cc(Br)cc(C(F)(F)F)c2)s[nH]c1=O          CC50          > 50 µM
4  N#Cc1c(Nc2cc(C(F)(F)F)cc(C(F)(F)F)c2)s[nH]c1=O          CC50          > 50 µM

Please examine the following record next.
Item under review: `Cc1cccc(C)c1Sc1ccc(Nc2s[nH]c(=O)c2C#N)cc1` . Reported CC50?
< 50 µM

---

System: HCV Con1 subgenomic replicon in Huh-7 cells (NK/luc-ubi-neo)
Assay: HCV replicon assay (luciferase reporter)
Format: cell-based
Details: anti-HCV activity, class symbols; read-out: Range of EC50 in HCV replicon assay
# EC50 values compiled below

# example entries with known answers
> print(dat)
                                   compound                         target.under.test  reported.result
1            N#Cc1c(Nc2cccc(Br)n2)s[nH]c1=O  HCV Con1 subgenomic replicon in Huh-7 cells (NK/luc-ubi-neo)      10 to 50 µM
2  Cc1cccc(C)c1Sc1ccc(Nc2s[nH]c(=O)c2C#N)cc1  HCV Con1 subgenomic replicon in Huh-7 cells (NK/luc-ubi-neo)       1 to 10 µM
3            COc1ccc(Nc2s[nH]c(=O)c2C#N)cc1  HCV Con1 subgenomic replicon in Huh-7 cells (NK/luc-ubi-neo)      10 to 50 µM
4            N#Cc1c(Nc2ccc(Br)cn2)s[nH]c1=O  HCV Con1 subgenomic replicon in Huh-7 cells (NK/luc-ubi-neo)      10 to 50 µM
5         N#Cc1c(Nc2ccc(Br)c(F)c2)s[nH]c1=O  HCV Con1 subgenomic replicon in Huh-7 cells (NK/luc-ubi-neo)           < 1 µM

Recorded EC50 of `COC(=O)c1ccc(Nc2s[nH]c(=O)c2C#N)cc1` , please.
10 to 50 µM

May I ask what EC50 has been recorded for `N#Cc1c(Nc2cc(F)c(Br)c(F)c2)s[nH]c1=O` ?
< 1 µM

Sample `COC(=O)c1ccccc1Nc1s[nH]c(=O)c1C#N` — what was its EC50?
> 50 µM

Query (compound): `N#Cc1c(Nc2cc(Br)cc(C(F)(F)F)c2)s[nH]c1=O` ; field requested: EC50
< 1 µM

Would you mind telling me what EC50 value was observed for `N#Cc1c(Nc2ccc(Br)c(C(F)(F)F)c2)s[nH]c1=O` ?
1 to 10 µM
